Hello, the source for this data is PubChem BioAssay AID256, in case you need it.

// reported T/C for each item listed
System: CD2F1 mice, L1210 leukemia ip, survival T/C
Assay overview: NCI In Vivo Anticancer Drug Screen. Data for tumor model L1210 Leukemia (intraperitoneal) in CD2F1 (CDF1) mice
Measurement context: endpoint: mean survival time; dose: 50.0 mg/kg/injection; schedule: Q04DX002 (ip); vehicle: saline with Tween-80; higher = longer survival
Toxic doses and inconclusive results are not listed.

Molecule	Experimental system	T/C
c1ccc(OCC2(N3CCCCC3)CCCC2)cc1	CD2F1 mice, L1210 leukemia ip, survival T/C	108 % of control
O=C(CCC1CC=CCC1)c1ccccc1 (stereo not drawn)	CD2F1 mice, L1210 leukemia ip, survival T/C	96 % of control
CC(CN=Cc1ccccc1O)N=Cc1ccccc1O.[Cu] (stereo not drawn)	CD2F1 mice, L1210 leukemia ip, survival T/C	103 % of control
Cc1ccc(S(=O)(=O)C[n+]2ccc(C(=O)c3ccccc3)cc2)cc1	CD2F1 mice, L1210 leukemia ip, survival T/C	97 % of control
O=C(O)c1cc2c([nH]1)=C(O)NN(O)C=2	CD2F1 mice, L1210 leukemia ip, survival T/C	111 % of control
O=C(C#Cc1ccccc1)N1CCCCC1	CD2F1 mice, L1210 leukemia ip, survival T/C	99 % of control
CC(CC1CC=CCC1)C(=O)c1ccccc1 (stereo not drawn)	CD2F1 mice, L1210 leukemia ip, survival T/C	100 % of control
Cc1ccc(S(=O)(=O)ON/N=C2\C(=O)C3CCC2C3)cc1 (stereo not drawn)	CD2F1 mice, L1210 leukemia ip, survival T/C	96 % of control
CCCC(=O)/C=C\c1ccccc1	CD2F1 mice, L1210 leukemia ip, survival T/C	102 % of control
CC1CCCC(CN=Cc2ccccc2O)[N-]1.CC1CCCC(CN=Cc2ccccc2O)[N-]1.[Ni+2] (stereo not drawn)	CD2F1 mice, L1210 leukemia ip, survival T/C	91 % of control
CCCOCCN=C(N)C(N)=NCCOCCC	CD2F1 mice, L1210 leukemia ip, survival T/C	97 % of control
Cc1ccc(C2OC2C(=O)c2ccccc2)cc1 (stereo not drawn)	CD2F1 mice, L1210 leukemia ip, survival T/C	95 % of control
CC(=Nc1ccccc1)C1=C(O)C(Cc2ccccc2)NC1=O (stereo not drawn)	CD2F1 mice, L1210 leukemia ip, survival T/C	103 % of control
